Where do these numbers come from? They come from ChEMBL document CHEMBL2429814.

TARGET UNDER TEST: Metabotropic glutamate receptor 5 (Homo sapiens, UniProt P41594)
Sequence (P41594 whole entry): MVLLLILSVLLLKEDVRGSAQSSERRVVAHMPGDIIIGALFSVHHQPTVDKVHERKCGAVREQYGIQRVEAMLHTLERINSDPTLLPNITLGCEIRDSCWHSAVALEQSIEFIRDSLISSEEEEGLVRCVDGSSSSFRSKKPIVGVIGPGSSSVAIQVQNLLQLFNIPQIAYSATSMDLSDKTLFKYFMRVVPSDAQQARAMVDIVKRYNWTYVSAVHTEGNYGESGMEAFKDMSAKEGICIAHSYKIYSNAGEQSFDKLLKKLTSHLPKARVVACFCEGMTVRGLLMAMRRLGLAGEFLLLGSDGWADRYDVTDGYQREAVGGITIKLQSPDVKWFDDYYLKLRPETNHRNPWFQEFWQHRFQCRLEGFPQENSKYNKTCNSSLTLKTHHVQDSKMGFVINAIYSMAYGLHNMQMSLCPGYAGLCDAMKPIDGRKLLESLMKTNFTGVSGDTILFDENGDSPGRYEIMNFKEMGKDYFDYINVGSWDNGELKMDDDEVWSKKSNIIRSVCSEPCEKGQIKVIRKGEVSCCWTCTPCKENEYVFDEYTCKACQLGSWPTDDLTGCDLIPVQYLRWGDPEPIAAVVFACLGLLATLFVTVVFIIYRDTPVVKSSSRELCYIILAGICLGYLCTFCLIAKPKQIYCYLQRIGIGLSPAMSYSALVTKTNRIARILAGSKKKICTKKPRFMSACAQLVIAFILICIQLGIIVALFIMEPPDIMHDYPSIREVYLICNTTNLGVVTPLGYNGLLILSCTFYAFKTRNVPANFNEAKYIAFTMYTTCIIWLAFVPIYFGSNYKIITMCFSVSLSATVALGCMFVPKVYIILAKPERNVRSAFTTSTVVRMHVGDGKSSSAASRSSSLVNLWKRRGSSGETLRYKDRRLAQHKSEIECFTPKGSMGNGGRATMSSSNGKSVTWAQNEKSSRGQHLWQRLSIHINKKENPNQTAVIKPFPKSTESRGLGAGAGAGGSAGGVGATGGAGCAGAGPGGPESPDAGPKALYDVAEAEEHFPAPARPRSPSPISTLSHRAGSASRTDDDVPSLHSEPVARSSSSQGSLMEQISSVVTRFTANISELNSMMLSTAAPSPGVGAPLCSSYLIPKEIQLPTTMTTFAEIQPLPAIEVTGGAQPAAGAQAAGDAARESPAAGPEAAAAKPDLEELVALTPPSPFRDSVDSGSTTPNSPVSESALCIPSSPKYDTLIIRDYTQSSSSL
TEST DETAILS: Positive allosteric modulation of human mGluR5 stably expressed in HEK293 cells assessed as Ca2+ flux by FLIPR assay

INPUT SMILES	EC50, nM
O=C(c1ccc(F)cc1)N1CCC[C@H](c2nc(-c3ccc(F)cc3)no2)C1	157

* * *

TARGET UNDER TEST: Metabotropic glutamate receptor 5 (Rattus norvegicus, UniProt P31424)
Sequence (P31424 whole entry): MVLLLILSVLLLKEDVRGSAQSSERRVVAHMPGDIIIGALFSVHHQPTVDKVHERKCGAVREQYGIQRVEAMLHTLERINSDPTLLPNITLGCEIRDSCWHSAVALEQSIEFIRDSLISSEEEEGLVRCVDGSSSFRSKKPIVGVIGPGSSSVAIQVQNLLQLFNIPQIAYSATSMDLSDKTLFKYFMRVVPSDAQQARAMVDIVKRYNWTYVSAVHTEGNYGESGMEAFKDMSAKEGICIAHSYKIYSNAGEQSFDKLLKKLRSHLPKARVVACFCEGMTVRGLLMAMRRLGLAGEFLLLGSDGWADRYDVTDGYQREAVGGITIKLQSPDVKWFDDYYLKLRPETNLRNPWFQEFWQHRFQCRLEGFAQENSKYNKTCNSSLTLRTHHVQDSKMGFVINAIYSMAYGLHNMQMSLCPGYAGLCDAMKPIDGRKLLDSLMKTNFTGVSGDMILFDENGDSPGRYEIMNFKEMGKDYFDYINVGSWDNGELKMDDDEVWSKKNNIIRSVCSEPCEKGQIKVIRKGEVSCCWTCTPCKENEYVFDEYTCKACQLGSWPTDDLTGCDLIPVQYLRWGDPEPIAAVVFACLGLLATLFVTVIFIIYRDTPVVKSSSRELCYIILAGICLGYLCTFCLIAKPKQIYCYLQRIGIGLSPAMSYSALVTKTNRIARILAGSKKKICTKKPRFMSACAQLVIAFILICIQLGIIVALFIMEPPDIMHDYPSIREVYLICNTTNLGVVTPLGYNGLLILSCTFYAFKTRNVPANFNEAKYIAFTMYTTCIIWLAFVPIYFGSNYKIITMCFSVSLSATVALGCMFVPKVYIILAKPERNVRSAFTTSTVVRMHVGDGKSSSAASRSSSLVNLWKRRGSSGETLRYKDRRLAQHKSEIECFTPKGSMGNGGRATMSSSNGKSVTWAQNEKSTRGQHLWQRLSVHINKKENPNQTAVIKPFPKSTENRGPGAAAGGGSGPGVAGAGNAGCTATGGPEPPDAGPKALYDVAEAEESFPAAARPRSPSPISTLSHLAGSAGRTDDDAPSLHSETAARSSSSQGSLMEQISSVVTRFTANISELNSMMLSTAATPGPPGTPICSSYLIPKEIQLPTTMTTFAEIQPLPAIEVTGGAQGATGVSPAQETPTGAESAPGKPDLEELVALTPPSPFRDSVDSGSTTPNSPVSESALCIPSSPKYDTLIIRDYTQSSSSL
TEST DETAILS: Agonist activity at rat mGluR5 stably expressed in HEK293 cells assessed as increase in intracellular calcium level by Fluo-4AM dye-based fluorescence assay
Type: cell-based
ASSAY CONDITIONS: read-out: EC50
pEC50: −log10 of the molar value.
Here the recorded pEC50 is given for each entry.

INPUT SMILES	pEC50
C[C@@H](NC(=O)c1ccc(C#Cc2cccc(F)n2)cn1)C(C)(C)O	5.89
CC1(CCNC(=O)c2ccc(C#Cc3cccc(F)c3)cn2)COC1	5.55
C[C@@H](NC(=O)c1ccc(C#Cc2ccc(F)cc2)cn1)C(C)(C)O	5.82
CC(C)(C)CNC(=O)c1ccc(C#Cc2cccc(F)c2)cn1	5.59
C[C@@H](NC(=O)c1ccc(C#Cc2cccc(F)c2)nn1)C(C)(C)O	5.67
Cc1ccccc1C#Cc1ccc(C(=O)N[C@H](C)C(C)(C)O)nc1	4.91
C[C@@H](NC(=O)c1ccc(C#Cc2cccc(F)c2)cn1)C(C)(C)C	5.56

* * *

Here the recorded EC50 is given for each entry.
TARGET UNDER TEST: Metabotropic glutamate receptor 5 (Rattus norvegicus, UniProt P31424)
TEST DETAILS: Agonist activity at rat mGluR5 stably expressed in HEK293 cells assessed as increase in intracellular calcium level by Fluo-4AM dye-based fluorescence assay
Type: cell-based
ASSAY CONDITIONS: read-out: EC50
READOUT TYPE: EC50 (nM)

INPUT SMILES	ENDPOINT RESULT
C[C@@H](NC(=O)c1ccc(C#Cc2ccccc2F)cn1)C(C)(C)O	1160
CC(C)[C@H](C)NC(=O)c1ccc(C#Cc2cccc(F)c2)cn1	2220
C[C@@H](NC(=O)c1cnc(C#Cc2cccc(F)c2)cn1)C(C)(C)O	3040
C[C@@H](NC(=O)c1ccc(C#Cc2cccc(F)c2)cn1)C(C)(C)F	2060
C[C@@H](NC(=O)c1ccc(C#Cc2ccc(F)cc2F)cn1)C(C)(C)O	3690
C[C@@H](NC(=O)c1ccc(C#Cc2ccccc2)cn1)C(C)(C)O	874
C[C@@H](NC(=O)c1ccc(C#Cc2cccc(F)c2)nc1)C(C)(C)O	6800
C[C@@H](NC(=O)c1ccc(C#Cc2cc(F)cc(F)c2)cn1)C(C)(C)O	3670
C[C@@H](NC(=O)c1ncc(C#Cc2cccc(F)c2)cn1)C(C)(C)O	4130
C[C@@H](NC(=O)c1ccc(C#Cc2ccccn2)cn1)C(C)(C)C	6110
Cc1cccc(C#Cc2ccc(C(=O)N[C@H](C)C(C)(C)O)nc2)c1	1360
Cc1nc(C#Cc2cccc(F)c2)ccc1C(=O)N[C@H](C)C(C)(C)O	1090
C[C@@H](NC(=O)c1ccc(C#Cc2cccc(F)c2)cn1)C(C)(C)O	904
C[C@@H](NC(=O)c1nc(C#Cc2cccc(F)c2)cs1)C(C)(C)O	4780
C[C@@H](NC(=O)c1ccc(C#Cc2cc(F)ccn2)cn1)C(C)(C)O	3980
C[C@@H](NC(=O)c1ccc(C#Cc2cccc(F)c2)cc1)C(C)(C)O	1040
CCCNC(=O)c1ccc(C#Cc2cccc(F)c2)cn1	3010
CC(C)(CO)NC(=O)c1ccc(C#Cc2cccc(F)c2)cn1	729
C[C@H](NC(=O)c1ccc(C#Cc2cccc(F)c2)cn1)C(F)(F)F	1390
CC(C)[C@@H](C)NC(=O)c1ccc(C#Cc2cccc(F)c2)cn1	1470
O=C(NCC(F)(F)F)c1ccc(C#Cc2cccc(F)c2)cn1	10700
C[C@@H](NC(=O)c1ccc(C#Cc2ccc(F)cn2)cn1)C(C)(C)O	1700
